Data origin: patent US11292782B2

ASSAY_SYSTEM: Human AR (Homo sapiens (Human), UniProt P10275)
Sequence (P10275 whole entry): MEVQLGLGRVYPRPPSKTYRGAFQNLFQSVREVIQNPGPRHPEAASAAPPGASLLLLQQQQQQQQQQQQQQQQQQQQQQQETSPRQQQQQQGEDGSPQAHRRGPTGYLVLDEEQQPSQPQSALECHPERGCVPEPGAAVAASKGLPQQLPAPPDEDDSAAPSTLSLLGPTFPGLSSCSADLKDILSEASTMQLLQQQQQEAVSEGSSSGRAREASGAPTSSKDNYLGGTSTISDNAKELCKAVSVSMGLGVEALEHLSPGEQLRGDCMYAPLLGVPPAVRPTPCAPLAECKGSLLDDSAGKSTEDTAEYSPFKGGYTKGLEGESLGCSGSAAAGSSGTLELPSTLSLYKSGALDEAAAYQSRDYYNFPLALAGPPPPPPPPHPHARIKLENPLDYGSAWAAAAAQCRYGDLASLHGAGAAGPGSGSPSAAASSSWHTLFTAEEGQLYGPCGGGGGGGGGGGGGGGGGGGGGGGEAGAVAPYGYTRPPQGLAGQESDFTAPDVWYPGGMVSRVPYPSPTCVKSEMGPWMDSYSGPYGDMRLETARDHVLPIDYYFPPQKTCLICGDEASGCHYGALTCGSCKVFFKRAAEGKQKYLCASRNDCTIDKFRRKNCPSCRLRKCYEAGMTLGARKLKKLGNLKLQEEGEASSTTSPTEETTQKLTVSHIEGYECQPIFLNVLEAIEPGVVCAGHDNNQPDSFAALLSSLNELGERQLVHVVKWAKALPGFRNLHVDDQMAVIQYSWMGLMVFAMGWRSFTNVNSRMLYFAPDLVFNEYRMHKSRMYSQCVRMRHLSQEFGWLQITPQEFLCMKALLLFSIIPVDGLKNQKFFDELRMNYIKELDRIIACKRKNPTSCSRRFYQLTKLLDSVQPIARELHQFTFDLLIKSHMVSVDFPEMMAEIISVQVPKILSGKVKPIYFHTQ
EXPERIMENTAL_DETAILS: AR antagonist assay (GRE-LUC luciferase, transfected HEK-293 cells, with 0.1 nM R1881)
COND: with 0.1 nM R1881
Measured IC50 of individual entries

- CPD_SMILES: "Cn1cncc1C(=O)NCc1ccc(N2C(=S)N(c3ccc(C#N)c(C(F)(F)F)c3)C(=O)C2(C)C)cc1F"
  RESULT_QUALIFIER: "="
  IC50, nM: 120
- CPD_SMILES: "Cc1ncsc1C(=O)NCc1ccc(N2C(=S)N(c3cccc(C(F)(F)F)c3)C(=O)C2(C)C)cc1F"
  RESULT_QUALIFIER: ">"
  IC50, nM: 10000
- CPD_SMILES: "Cn1nccc1C(=O)NCc1ccc(N2C(=S)N(c3ccc(C#N)c(C(F)(F)F)c3)C(=O)C23CCC3)cc1F"
  RESULT_QUALIFIER: "="
  IC50, nM: 92
- CPD_SMILES: "Cc1ncc(C(=O)NCc2ccc(N3C(=S)N(c4ccc(C#N)c(C(F)(F)F)c4)C(=O)C3(C)C)cc2F)s1"
  RESULT_QUALIFIER: "="
  IC50, nM: 99
- CPD_SMILES: "CC1(C)C(=O)N(c2ccc(C#N)c(C(F)(F)F)c2)C(=O)N1c1ccc(CNC(=O)C2CC2)c(F)c1"
  RESULT_QUALIFIER: "="
  IC50, nM: 1090
- CPD_SMILES: "CC1(C)C(=O)N(c2ccc(C#N)c(C(F)(F)F)c2)C(=O)N1c1ccc(CNC(=O)c2ncccn2)cc1"
  RESULT_QUALIFIER: "="
  IC50, nM: 304
- CPD_SMILES: "Cn1ccnc1C(=O)NCc1ccc(N2C(=O)N(c3ccc(C#N)c(C(F)(F)F)c3)C(=O)C2(C)C)cc1F"
  RESULT_QUALIFIER: "="
  IC50, nM: 968

* * *

ASSAY_SYSTEM: GR (Homo sapiens (Human))
Sequence (P04150 whole entry): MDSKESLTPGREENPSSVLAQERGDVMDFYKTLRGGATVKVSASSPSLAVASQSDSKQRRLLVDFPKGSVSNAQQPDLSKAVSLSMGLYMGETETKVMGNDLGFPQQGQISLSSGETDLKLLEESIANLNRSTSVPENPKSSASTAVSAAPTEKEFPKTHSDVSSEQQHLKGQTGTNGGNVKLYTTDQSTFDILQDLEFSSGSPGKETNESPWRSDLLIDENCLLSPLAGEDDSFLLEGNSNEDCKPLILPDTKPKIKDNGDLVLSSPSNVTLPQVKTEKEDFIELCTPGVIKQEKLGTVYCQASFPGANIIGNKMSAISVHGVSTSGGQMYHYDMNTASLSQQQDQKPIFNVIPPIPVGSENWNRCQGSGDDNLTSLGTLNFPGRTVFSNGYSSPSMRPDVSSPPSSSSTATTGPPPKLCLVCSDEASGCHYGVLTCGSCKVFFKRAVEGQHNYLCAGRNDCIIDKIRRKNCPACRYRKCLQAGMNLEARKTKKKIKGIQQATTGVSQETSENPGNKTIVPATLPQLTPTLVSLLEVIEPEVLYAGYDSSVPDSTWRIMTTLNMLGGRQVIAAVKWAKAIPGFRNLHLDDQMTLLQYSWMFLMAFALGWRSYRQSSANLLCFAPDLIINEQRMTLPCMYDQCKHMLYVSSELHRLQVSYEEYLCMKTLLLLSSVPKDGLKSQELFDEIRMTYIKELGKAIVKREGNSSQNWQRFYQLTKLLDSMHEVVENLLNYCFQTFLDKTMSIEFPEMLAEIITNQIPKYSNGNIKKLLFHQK
EXPERIMENTAL_DETAILS: GR antagonist assay (GRE-LUC luciferase, transfected COS-7 cells, with 0.1 nM dexamethasone)
Assay type: cell-based
COND: COS-7, read-out: GR Antagonism % inhibition at 10 μM; 10 μM single concentration
// inhibition at 10 µM lookup, one value per entry

- CPD_SMILES: "Cn1nccc1C(=O)NCc1ccc(N2C(=S)N(c3ccc(C#N)c(F)c3)C(=O)C2(C)C)cc1F"
  UNIT_TAG: "%"
  inhibition at 10 µM: 17
- CPD_SMILES: "CC1(C)C(=O)N(c2ccc(C#N)c(F)c2)C(=S)N1c1ccc(CN2Cc3ncccc3C2=O)c(F)c1"
  UNIT_TAG: "%"
  inhibition at 10 µM: 0
- CPD_SMILES: "Cc1ncsc1C(=O)NCc1ccc(N2C(=S)N(c3cnc(C#N)c(C(F)(F)F)c3)C(=O)C2(C)C)cc1F"
  UNIT_TAG: "%"
  inhibition at 10 µM: 35
- CPD_SMILES: "CC1(C)C(=O)N(c2cnc(C#N)c(C(F)(F)F)c2)C(=S)N1c1ccc(CNC(=O)c2ccccn2)c(F)c1"
  UNIT_TAG: "%"
  inhibition at 10 µM: 69

* * *

ASSAY_SYSTEM: UniProtKB P04150
EXPERIMENTAL_DETAILS: GR antagonist assay (GRE-LUC luciferase, transfected COS-7 cells, with 0.1 nM dexamethasone)
Format: cell-based
COND: 10 μM, in the presence of 0.1 nM dexamethasone
QUANTITY_NAME: GR antagonist assay, % of vehicle (%)

- COMPOUND: "CC1(C)C(=O)N(c2ccc(C#N)c(C(F)(F)F)c2)C(=S)N1c1ccc(CNC(=O)c2ccccn2)c(F)c1 [Compound 8]"
  OBSERVED_MEASUREMENT: 52
- COMPOUND: "CC1(C)C(=O)N(c2ccc(C#N)c(C(F)(F)F)c2)C(=S)N1c1ccc(CN2Cc3ncccc3C2=O)c(F)c1 [Compound 66]"
  OBSERVED_MEASUREMENT: 31
- COMPOUND: "Cc1ncsc1C(=O)NCc1ccc(N2C(=S)N(c3ccc(C#N)c(C(F)(F)F)c3)C(=O)C2(C)C)cc1F [Compound 9]"
  OBSERVED_MEASUREMENT: 41
- COMPOUND: "Cc1ncsc1C(=O)NCc1ccc(N2C(=S)N(c3ccc(C#N)c(F)c3)C(=O)C2(C)C)cc1F [Compound 68]"
  OBSERVED_MEASUREMENT: 84
- COMPOUND: "CC#C[C@]1(O)CC[C@H]2[C@@H]3CCC4=CC(=O)CCC4=C3[C@@H](c3ccc(N(C)C)cc3)C[C@@]21C [RU486, reference compound]"
  OBSERVED_MEASUREMENT: 13
